Exercise: for every item that follows, state its recorded MIC50.
Test system: Staphylococcus aureus
Test: Antibacterial activity against methicillin-susceptible Staphylococcus aureus isolate by CLSI dilution method
Format: functional
Give bare numbers, in µg/mL.

Hi team, please reply with MIC50 for each item in this list.
1. CC(=O)NC[C@H]1CN(c2ccc(N3CCOCC3)c(F)c2)C(=O)O1
2. C[C@H]1COc2c(N3CCN(C)CC3)c(F)cc3c(=O)c(C(=O)O)cn1c23.C[C@H]1COc2c(N3CCN(C)CC3)c(F)cc3c(=O)c(C(=O)O)cn1c23.O

Result:
4
0.25

GET /values?item= CC[C@H]1OC(=O)[C@H](C)[C@@H](O[C@H]2C[C@@](C)(OC)[C@@H](O)[C@H](C)O2)[C@H](C)[C@@H](O[C@@H]2O[C@H](C)C[C@H](N(C)C)[C@H]2O)[C@](C)(O)C[C@@H](C)C(=O)[C@H](C)[C@@H](O)[C@]1(C)O &system= Staphylococcus aureus returns MIC50: 0.5

---

Test system: Staphylococcus aureus
Experiment: Antibacterial activity against methicillin-resistant Staphylococcus aureus isolate assessed as percent resistant isolates by CLSI dilution method
Assay type: functional
Give Activity for every item shown.
Give bare numbers, in %.

Reference set, count: 5
CN(C)[C@@H]1C(O)=C(C(N)=O)C(=O)[C@@]2(O)C(O)=C3C(=O)c4c(O)cccc4[C@@](C)(O)[C@H]3C[C@@H]12 :: 75
CC[C@H]1OC(=O)[C@H](C)[C@@H](O[C@H]2C[C@@](C)(OC)[C@@H](O)[C@H](C)O2)[C@H](C)[C@@H](O[C@@H]2O[C@H](C)C[C@H](N(C)C)[C@H]2O)[C@](C)(O)C[C@@H](C)C(=O)[C@H](C)[C@@H](O)[C@]1(C)O :: 95
Cc1onc(-c2ccccc2)c1C(=O)N[C@@H]1C(=O)N2[C@@H]1SC(C)(C)[C@@H]2C(=O)O :: 100
C[C@H]1COc2c(N3CCN(C)CC3)c(F)cc3c(=O)c(C(=O)O)cn1c23.C[C@H]1COc2c(N3CCN(C)CC3)c(F)cc3c(=O)c(C(=O)O)cn1c23.O :: 93
CN[C@H](CC(C)C)C(=O)N[C@H]1C(=O)N[C@@H](CC(N)=O)C(=O)N[C@H]2C(=O)N[C@H]3C(=O)N[C@H](C(=O)N[C@H](C(=O)O)c4cc(O)cc(O)c4-c4cc3ccc4O)[C@H](O)c3ccc(c(Cl)c3)Oc3cc2cc(c3O[C@@H]2O[C@H](CO)[C@@H](O)[C@H](O)[C@H]2O[C@H]2C[C@](C)(N)[C@H](O)[C@H](C)O2)Oc2ccc(cc2Cl)[C@H]1O :: 0

# context switch: different molecule, same Activity
The recorded Activity for CCC[C@@H]1C[C@@H](C(=O)N[C@@H]([C@H]2O[C@H](SC)[C@H](O)[C@@H](O)[C@H]2O)[C@H](C)Cl)N(C)C1 is 88

---

Test system: Staphylococcus aureus
Assay: Antibacterial activity against methicillin-susceptible Staphylococcus aureus isolate by CLSI dilution method
Type: functional
Assign MIC50 to each entry below.
Numbers only, in µg/mL.

Observe how each entry below is paired with its result.
CCC[C@@H]1C[C@@H](C(=O)N[C@@H]([C@H]2O[C@H](SC)[C@H](O)[C@@H](O)[C@H]2O)[C@H](C)Cl)N(C)C1 [CLINDAMYCIN] :: 0.12
CN(C)[C@@H]1C(O)=C(C(N)=O)C(=O)[C@@]2(O)C(O)=C3C(=O)c4c(O)cccc4[C@@](C)(O)[C@H]3C[C@@H]12 [TETRACYCLINE] :: 1
Cc1c(N)cccc1Cn1ccc(OCCc2cccs2)cc1=O [CG-400549] :: 0.5
Cc1onc(-c2ccccc2)c1C(=O)N[C@@H]1C(=O)N2[C@@H]1SC(C)(C)[C@@H]2C(=O)O [OXACILLIN] :: 0.5

Note: attention shifts to another entry.
According to the records, this compound CN[C@H](CC(C)C)C(=O)N[C@H]1C(=O)N[C@@H](CC(N)=O)C(=O)N[C@H]2C(=O)N[C@H]3C(=O)N[C@H](C(=O)N[C@H](C(=O)O)c4cc(O)cc(O)c4-c4cc3ccc4O)[C@H](O)c3ccc(c(Cl)c3)Oc3cc2cc(c3O[C@@H]2O[C@H](CO)[C@@H](O)[C@H](O)[C@H]2O[C@H]2C[C@](C)(N)[C@H](O)[C@H](C)O2)Oc2ccc(cc2Cl)[C@H]1O [VANCOMYCIN] displays MIC50 of 1

---

Tested on: Staphylococcus aureus
Assay: Antibacterial activity against methicillin-susceptible Staphylococcus aureus isolate assessed as […] isolates by CLSI dilution method
Type: functional
So I've got a bunch of compounds here, and I need their Activity values.
Answers are plain numbers, in %.

Illustrative cases are given below, each with its answer.
CC(=O)NC[C@H]1CN(c2ccc(N3CCOCC3)c(F)c2)C(=O)O1 :: 100
CN(C)[C@@H]1C(O)=C(C(N)=O)C(=O)[C@@]2(O)C(O)=C3C(=O)c4c(O)cccc4[C@@](C)(O)[C@H]3C[C@@H]12 :: 88
CCC[C@@H]1C[C@@H](C(=O)N[C@@H]([C@H]2O[C@H](SC)[C@H](O)[C@@H](O)[C@H]2O)[C@H](C)Cl)N(C)C1 :: 100
C[C@H]1COc2c(N3CCN(C)CC3)c(F)cc3c(=O)c(C(=O)O)cn1c23.C[C@H]1COc2c(N3CCN(C)CC3)c(F)cc3c(=O)c(C(=O)O)cn1c23.O :: 100
Cc1onc(-c2ccccc2)c1C(=O)N[C@@H]1C(=O)N2[C@@H]1SC(C)(C)[C@@H]2C(=O)O :: 100

For each of the compounds below, state Activity.
1. CN[C@H](CC(C)C)C(=O)N[C@H]1C(=O)N[C@@H](CC(N)=O)C(=O)N[C@H]2C(=O)N[C@H]3C(=O)N[C@H](C(=O)N[C@H](C(=O)O)c4cc(O)cc(O)c4-c4cc3ccc4O)[C@H](O)c3ccc(c(Cl)c3)Oc3cc2cc(c3O[C@@H]2O[C@H](CO)[C@@H](O)[C@H](O)[C@H]2O[C@H]2C[C@](C)(N)[C@H](O)[C@H](C)O2)Oc2ccc(cc2Cl)[C@H]1O
2. CC[C@H]1OC(=O)[C@H](C)[C@@H](O[C@H]2C[C@@](C)(OC)[C@@H](O)[C@H](C)O2)[C@H](C)[C@@H](O[C@@H]2O[C@H](C)C[C@H](N(C)C)[C@H]2O)[C@](C)(O)C[C@@H](C)C(=O)[C@H](C)[C@@H](O)[C@]1(C)O

Result:
100
88

---

So I've got a bunch of compounds here, and I need their Activity values.
Test system: Staphylococcus sp.
Assay: Antibacterial activity against methicillin-susceptible coagulase-negative Staphylococcus sp. assessed as percent resistant isolates by CLSI dilution method
Type: functional
Numbers only, in %.

Record excerpt, results attached:
Cc1onc(-c2ccccc2)c1C(=O)N[C@@H]1C(=O)N2[C@@H]1SC(C)(C)[C@@H]2C(=O)O :: 0
CC[C@H]1OC(=O)[C@H](C)[C@@H](O[C@H]2C[C@@](C)(OC)[C@@H](O)[C@H](C)O2)[C@H](C)[C@@H](O[C@@H]2O[C@H](C)C[C@H](N(C)C)[C@H]2O)[C@](C)(O)C[C@@H](C)C(=O)[C@H](C)[C@@H](O)[C@]1(C)O :: 17
CN(C)[C@@H]1C(O)=C(C(N)=O)C(=O)[C@@]2(O)C(O)=C3C(=O)c4c(O)cccc4[C@@](C)(O)[C@H]3C[C@@H]12 :: 22
C[C@H]1COc2c(N3CCN(C)CC3)c(F)cc3c(=O)c(C(=O)O)cn1c23.C[C@H]1COc2c(N3CCN(C)CC3)c(F)cc3c(=O)c(C(=O)O)cn1c23.O :: 0
CCC[C@@H]1C[C@@H](C(=O)N[C@@H]([C@H]2O[C@H](SC)[C@H](O)[C@@H](O)[C@H]2O)[C@H](C)Cl)N(C)C1 :: 3

Field: next compound
Activity reported for this compound CN[C@H](CC(C)C)C(=O)N[C@H]1C(=O)N[C@@H](CC(N)=O)C(=O)N[C@H]2C(=O)N[C@H]3C(=O)N[C@H](C(=O)N[C@H](C(=O)O)c4cc(O)cc(O)c4-c4cc3ccc4O)[C@H](O)c3ccc(c(Cl)c3)Oc3cc2cc(c3O[C@@H]2O[C@H](CO)[C@@H](O)[C@H](O)[C@H]2O[C@H]2C[C@](C)(N)[C@H](O)[C@H](C)O2)Oc2ccc(cc2Cl)[C@H]1O : 0

---

Would you mind telling me the reported Activity of each entry?
Tested on: Staphylococcus sp.
Assay: Antibacterial activity against methicillin-resistant coagulase-negative Staphylococcus sp. assessed as percent resistant isolates by CLSI dilution method
Format: functional
Field note: include the unit after the figure.

Record excerpt, results attached:
Cc1onc(-c2ccccc2)c1C(=O)N[C@@H]1C(=O)N2[C@@H]1SC(C)(C)[C@@H]2C(=O)O [OXACILLIN] :: 100%
C[C@H]1COc2c(N3CCN(C)CC3)c(F)cc3c(=O)c(C(=O)O)cn1c23.C[C@H]1COc2c(N3CCN(C)CC3)c(F)cc3c(=O)c(C(=O)O)cn1c23.O [LEVOFLOXACIN] :: 60%

Could you now look at the following compound, please?
// sample CCC[C@@H]1C[C@@H](C(=O)N[C@@H]([C@H]2O[C@H](SC)[C@H](O)[C@@H](O)[C@H]2O)[C@H](C)Cl)N(C)C1 [CLINDAMYCIN] , its Activity was 54%
